Experiment Summary: Metabolite formation in the 3D HepaRG liver model
Format: in vitro ADME, human
Run Parameters: human, 3D HepaRG spheroids
Measure: microsomal CLint at 5 mM (µL/min/mg)

[[record]]
molecule = "COC(C)CO (stereo not shown)"
measure = "microsomal CLint at 5 mM"
obs_value = 9.62


====

Experiment Summary: S9 fraction incubation, solvent loss and metabolite formation
Type: in vitro ADME, human
Run Parameters: human, human liver S9 fraction, pH 7.4, CLint, in vitro, S9, measured, solvent loss, 700 μM β‐PGME
Measure: microsomal CLint at 700 μM (µL/min/mg)

[[record]]
molecule = "COC(C)CO (stereo not drawn) [β‐PGME, 2‐Methoxypropan‐1‐ol]"
units_symbol = "µL/min/mg"
obs_value = 3.8


====

Experiment Summary: S9 fraction incubation, solvent loss and metabolite formation
Type: in vitro ADME, human
Run Parameters: human, human liver S9 fraction, pH 7.4, Predicted CL int, in vivo, S9, solvent loss
Measure: CLint scaled at 700 μM (mL/min/kg)

[[record]]
compound = "COC(C)CO (stereo not shown)"
measure = "CLint scaled at 700 μM"
obs_value = 11.8


====

Experiment Summary: S9 fraction incubation, solvent loss and metabolite formation
Format: in vitro ADME, human
Run Parameters: human, human liver S9 fraction, pH 7.4, CLint, in vitro, S9, measured, metabolite formation, 700 μM β‐PGME
Measure: microsomal CLint at 700 μM (µL/min/mg)

[[record]]
compound = "COC(C)CO (stereo not drawn) [β‐PGME, 2‐Methoxypropan‐1‐ol]"
measure = "microsomal CLint at 700 μM"
obs_value = 40.9


====

Experiment Summary: Metabolite formation in the 3D HepaRG liver model
Assay type: in vitro ADME, human
Run Parameters: human, 3D HepaRG spheroids
Measure: hepatocyte CLint at 5 mM (µL/min/1e6 cells)

[[record]]
compound = "COC(C)CO (stereo not drawn) [β‐PGME, 2‐Methoxypropan‐1‐ol]"
units_symbol = "µL/min/1e6 cells"
obs_value = 9.34


====

Experiment Summary: Metabolite formation in the 3D HepaRG liver model
Assay type: in vitro ADME, human
Run Parameters: human, 3D HepaRG spheroids
Measure: CLint scaled at 5 mM

[[record]]
molecule = "COC(C)CO (stereo not shown)"
obs_value = "28.2 mL/min/kg"


====

Experiment Summary: S9 fraction incubation, solvent loss and metabolite formation
Format: in vitro ADME, human
Run Parameters: human, human liver S9 fraction, pH 7.4, Predicted CL int, in vivo, S9, metabolite formation
Measure: CLint scaled at 700 μM

[[record]]
molecule = "COC(C)CO (stereo not drawn) [β‐PGME, 2‐Methoxypropan‐1‐ol]"
obs_value = "127 mL/min/kg"

